target: Cyclin-dependent kinase 2 (Homo sapiens); conditions: Compound concentration 20.0 uM
Description: Thermal Shift Assay. Domain: start/stop: M1-L298
Residues, ends and D or L forms follow the SMILES beside them.
ΔTm under 0.06 °C gets yes (1), anything at or over 0.06 °C gets no (0).

Cc1cc(/N=N/c2ccc3c(c2)CCC(=O)N3)c(N)cc1O :: yes (1)
N#Cc1cc(F)cc(Oc2ccc3c(c2C(F)F)[C@@H](O)C(F)(F)S3(=O)=O)c1 :: yes (1)
CNc1nccc(CN([C@H]2CC[C@H](N)CC2)S(=O)(=O)c2ccc(S(=O)(=O)N(Cc3ccc(Cl)cc3)C3CCCC3)cc2)n1 :: yes (1)
Cc1cc(C)cc(Oc2ccc(CNC(=O)[C@H](C)N)cc2C)c1 :: no (0)
CNCCCN1c2ccccc2CCc2ccccc21 :: yes (1)

Regarding O=C(c1cc(O)c(O)c([N+](=O)[O-])c1)c1ccccc1F , kindly confirm whether its ΔTm is beneath 0.06 °C.
no (0)

I wonder whether CC(=O)N[C@H](C(=O)N[C@@H](CC(=O)O)C(=O)N[C@H](C(=O)N[C@@H](C)C(=O)N[C@H](C=O)CC(=O)O)C(C)C)C(C)C (Ac-VDVAD-aldehyde) has ΔTm below 0.06 °C. Can you tell?
yes (1)

# strict comparison: is reported ΔTm < 0.06 °C? input = O=C(O)C1CCCN(CCC=C(c2ccccc2)c2ccccc2)C1 (stereo not given)
yes (1)

Dear colleague, could you confirm whether ΔTm of CC(C)NCC(O)COC(Cn1c2ccccc2c2ccccc21)Cn1c2ccccc2c2ccccc21 (stereo not given) falls below 0.06 °C? Thanks.
yes (1)

Is it true that ΔTm reported for O=C(Nc1ccccc1C(=O)O)c1cc(S(=O)(=O)c2ccccc2)ccc1Cl is less than 0.06 °C?
no (0)
